B1: Azoarcus group I ribozyme (parent)
chain: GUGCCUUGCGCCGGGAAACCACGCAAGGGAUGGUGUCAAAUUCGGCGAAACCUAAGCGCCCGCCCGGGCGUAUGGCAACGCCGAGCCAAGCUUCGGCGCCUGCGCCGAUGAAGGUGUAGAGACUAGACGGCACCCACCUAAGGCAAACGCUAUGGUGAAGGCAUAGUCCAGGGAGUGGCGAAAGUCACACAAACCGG

Variants of: B1
Test: reverse-splicing fitness (ratio to wild type); higher = more active; in vitro selection; Mg2+ level not given
Class Condition met: reverse-splicing fitness at least 0.01. Class Condition not met: reverse-splicing fitness below 0.01.

# count of solved cases: 5
C82G A111C A120U A145U C169A U176A; Condition not met
A111G A120G A145U C150U U176A; Condition met
C82G A111C A120C A145G C150G C169U; Condition not met
A111G A120C A145C C150A; Condition met
C82A A111C A120C A145C C150G C169A U176C; Condition not met

Q) Exam item: decide whether the reported reverse-splicing fitness for C82A A111C A120G A145U C150G C169U U176C is at least 0.01.
A) Condition met

Q) Exam item: decide whether the reported reverse-splicing fitness for C82G A111G A145C C169A U176G is at least 0.01.
A) Condition not met

Q) Exam item: decide whether the reported reverse-splicing fitness for C82A A120G A145U C150U C169A U176A is at least 0.01.
A) Condition met

Q) Exam item: decide whether the reported reverse-splicing fitness for A111G A120U A145C C150G C169G U176A is at least 0.01.
A) Condition not met

Q) Exam item: decide whether the reported reverse-splicing fitness for C82G A111U A120G A145G C169A U176A is at least 0.01.
A) Condition met
